# ASSAYED_TARGET: Recombinant ROCK1 (amino acids 1-477) (Homo sapiens, UniProt Q13464)
# Construct: Recombinant ROCK1 (amino acids 1-477)
# Sequence (Q13464 1-477): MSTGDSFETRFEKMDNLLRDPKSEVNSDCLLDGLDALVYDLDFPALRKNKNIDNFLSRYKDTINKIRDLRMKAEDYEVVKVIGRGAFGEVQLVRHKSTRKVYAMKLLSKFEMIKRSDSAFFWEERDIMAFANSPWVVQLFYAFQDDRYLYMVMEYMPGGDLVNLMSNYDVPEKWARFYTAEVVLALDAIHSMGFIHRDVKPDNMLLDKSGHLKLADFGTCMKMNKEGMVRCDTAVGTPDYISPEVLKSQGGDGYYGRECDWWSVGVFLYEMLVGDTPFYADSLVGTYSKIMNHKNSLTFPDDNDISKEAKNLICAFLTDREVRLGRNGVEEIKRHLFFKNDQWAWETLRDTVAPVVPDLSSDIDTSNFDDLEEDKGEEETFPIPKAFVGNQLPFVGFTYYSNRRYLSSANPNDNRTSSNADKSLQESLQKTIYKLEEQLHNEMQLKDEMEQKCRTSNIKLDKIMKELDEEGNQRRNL
# TEST_DETAILS: ROCK inhibition assay, LANCE Ultra TR-FRET kinase assay
# Assay type: biochemical
# TEST_PARAMETERS: at Km of ATP (table title); method: 1 mM ATP, 50 nM ULight-CREBtide substrate, 1 hour, room temperature
PROPERTY_MEASURED: IC50

> print(dat)
                                   compound                            assayed.target   test.result
1  COc1ccc2c(c1)OCC(C(=O)c1cn(CCO)c3cc(-c4cn[nH]c4)ccc13)C2 (centres unmarked)  Recombinant ROCK1 (amino acids 1-477) (Homo sapiens, UniProt Q13464)  51 to 500 nM
2  COc1ccc2c(c1)OC(C(=O)c1cn(CCO)c3cc(-c4cn[nH]c4)ccc13)CO2 (centres unmarked)  Recombinant ROCK1 (amino acids 1-477) (Homo sapiens, UniProt Q13464)   11 to 50 nM
3  O=C(c1cn(CCO)c2cc(-c3cn[nH]c3)ccc12)C1COc2ccc(Cl)cc2C1 (centres unmarked)  Recombinant ROCK1 (amino acids 1-477) (Homo sapiens, UniProt Q13464)       < 10 nM
4  O=C(c1cn(CCO)c2cc(-c3c[nH]c4ncccc34)ccc12)C1COc2ccccc2O1 (centres unmarked)  Recombinant ROCK1 (amino acids 1-477) (Homo sapiens, UniProt Q13464)  51 to 500 nM
5  CC(O)Cn1cc(C(=O)[C@@H]2COc3ccc(Cl)cc3C2)c2ccc(-c3c[nH]nc3Cl)cc21 (some centres unmarked)  Recombinant ROCK1 (amino acids 1-477) (Homo sapiens, UniProt Q13464)   11 to 50 nM
6  CC(O)Cn1cc(C(=O)C2COc3ccc(Cl)cc3C2)c2cnc(-c3c[nH]nc3Cl)cc21 (centres unmarked)  Recombinant ROCK1 (amino acids 1-477) (Homo sapiens, UniProt Q13464)   11 to 50 nM
7  COc1ccc2c(c1)CC(C(=O)c1cn(CC(C)(C)O)c3cc(-c4cn[nH]c4F)ncc13)CO2 (centres unmarked)  Recombinant ROCK1 (amino acids 1-477) (Homo sapiens, UniProt Q13464)       < 10 nM
8  O=C(c1nn(CCO)c2cc(-c3cn[nH]c3)ccc12)C1COc2ccc(F)cc2O1 (centres unmarked)  Recombinant ROCK1 (amino acids 1-477) (Homo sapiens, UniProt Q13464)   11 to 50 nM

Fill in IC50 for each of the 7 compounds listed.
1. C[C@@H](O)Cn1cc(C(=O)[C@@H]2COc3ccc(F)cc3C2)c2cnc(-c3cn[nH]c3F)nc21 [Compound 1-51]
2. COc1ccc2c(c1)CC(C(=O)c1cn(CCO)c3nc(-c4c[nH]nc4Cl)ccc13)CO2 (centres unmarked)
3. O=C(c1cn(CCO)c2cc(-c3cn[nH]c3)ccc12)C1COc2ccccc2O1 (centres unmarked)
4. COc1[nH]ncc1-c1ncc2c(C(=O)C3COc4ccc(Cl)cc4C3)cn(CC(C)(C)O)c2n1 (centres unmarked)
5. O=C(c1cn(CCO)c2cc(-c3cn[nH]c3)ccc12)C1COc2cc(Cl)ccc2O1 (centres unmarked)
6. CC(C)(O)Cn1cc(C(=O)C2COc3ccc(Cl)cc3C2)c2cnc(-c3cn[nH]c3Cl)nc21 (centres unmarked)
7. COc1ccc2c(c1)CC(C(=O)c1cn(CC(C)(C)O)c3cc(-c4cn[nH]c4Cl)ncc13)CO2 (centres unmarked)

(A)
1. < 10 nM
2. < 10 nM
3. < 10 nM
4. 11 to 50 nM
5. 51 to 500 nM
6. < 10 nM
7. < 10 nM

Give one value of IC50 per listed compound.
1. O=C(c1cn(CCO)c2cc(-c3cn[nH]c3)ccc12)C1COc2ccc(Cl)cc2O1 (centres unmarked)
2. COc1n[nH]cc1-c1ccc2c(C(=O)[C@H]3COc4ccc(F)cc4C3)cn(CCO)c2c1 (single isomer, unassigned)
3. CC[C@H](O)Cn1cc(C(=O)C2COc3ccc(Cl)cc3C2)c2cnc(-c3cn[nH]c3F)cc21 (some centres unmarked)
4. COc1n[nH]cc1-c1ccc2c(C(=O)c3coc4ccccc34)nn(CCO)c2c1
5. CC(C)(O)Cn1cc(C(=O)C2COc3ccc(Cl)cc3C2)c2cnc(-c3c[nH]nc3Cl)cc21 (centres unmarked)

(A)
1: 51 to 500 nM; 2: > 501 nM; 3: 51 to 500 nM; 4: > 501 nM; 5: 11 to 50 nM
